Measured values drawn from patent US8586755B2 for this set.

- tested.target: KCNQ2/3 channels (Homo sapiens, UniProt O43525+O43526)
- run.description: Fluorescence assay using a voltage sensitive dye (fluorimetry)
- assay.context: CHO-K1 cells expressing KCNQ2/3 channels, agonistic activity
pEC50: −log10 of the molar value.
Tick 1.0 if pEC50 is 7 or greater. Tick 0.0 if pEC50 is less than 7.

INSERT INTO assay_data (compound, assigned_label) VALUES
  ('O=C(NCc1cccs1)c1cccnc1SCCOc1cccc(C(F)(F)F)c1 [compound 4]', 0.0),
  ('O=C(NCC1CC2CCC1C2)c1cccnc1SCCCc1ccc(F)cc1F (centres unmarked) [compound 62]', 0.0),
  ('COC(CNC(=O)c1cccnc1SCCCc1ccc(F)cc1)C(C)(C)C (centres unmarked) [compound 182]', 0.0),
  ('O=C(NCC1CC2CCC1C2)c1cccnc1SCCCc1ccc(F)c(F)c1 (centres unmarked) [compound 60]', 0.0),
  ('COCCNC(=O)c1cccnc1SCCCc1ccc(F)cc1 [compound 172]', 0.0);

Would you say CC(CSc1ncccc1C(=O)NCC1CC2CCC1C2)Cc1ccc(F)cc1 (centres unmarked) [compound 75] shows pEC50 at minimum 7? 1.0

Please tell me: is the compound O=C(NCCCc1cccnc1)c1cccnc1SCCCc1ccc(F)cc1 [compound 94] at or over 7 in terms of pEC50? 0.0

Please check the record CC(C)CCNC(=O)c1cccnc1SCCC(F)(F)c1ccc(F)c(F)c1 [compound 209] and state if its pEC50 is at or above 7. 1.0

Please indicate if the recorded pEC50 for Cc1ccc(CCCSc2ncccc2C(=O)NCc2cccs2)cc1C(F)(F)F [compound 113] meets or exceeds 7. 0.0

Quick check, pEC50 >= 7? O=C(NCC1CCCCCCC1)c1cccnc1SCCCc1ccc(F)cc1 [compound 55] 0.0

Say whether O=C(NCCc1cccnc1)c1cccnc1SCCCc1ccc(F)cc1 [compound 81] shows pEC50 of 7 or more. 0.0

Answer whether pEC50 of CC(C)(C)CCNC(=O)c1cccnc1SC1CCCC1Cc1ccccc1 (centres unmarked) [compound 155] is greater than or equal to 7. 0.0

* * *

- tested.target: KCNQ2/3 channels (Homo sapiens, UniProt O43525+O43526)
- run.description: Fluorescence assay using a voltage sensitive dye (fluorimetry)
- assay.context: CHO-K1 cells expressing KCNQ2/3 channels, agonistic activity
Each record is given y if its reported EC50 is strictly below 300 nM. Records at or above 300 nM are given n.

EC50 strictly < 300 nM for this compound? Cc1cccc(CCNC(=O)c2cccnc2SCCCc2ccc(F)cc2)c1 [compound 85] n

I'd appreciate it if you could check whether O=C(NCC1CCCCCC1)c1cccnc1SCCCc1ccc(F)cc1 [compound 41] has EC50 smaller than 300 nM. y

* * *

- tested.target: KCNQ2/3 channels (Homo sapiens, UniProt O43525+O43526)
- run.description: Fluorescence assay using a voltage sensitive dye (fluorimetry)
- assay.context: CHO-K1 cells expressing KCNQ2/3 channels, agonistic activity
Categories are defined by ranges of EC50, namely category 1: < 100 nM; category 2: ≥ 100 nM and < 200 nM; category 3: ≥ 200 nM

INSERT INTO measurements (molecule, assigned_label) VALUES
  ('O=C(NCCC(F)(F)F)c1cccnc1SCCCc1ccc(F)cc1', 'category 2'),
  ('O=C(NCC1CC2CCC1C2)c1cccnc1SCCCc1cc(F)c(F)cc1F (centres unmarked)', 'category 2'),
  ('O=C(NCC1CC2CCC1C2)c1cccnc1SCCCc1cc(F)c(F)c(F)c1 (centres unmarked)', 'category 1'),
  ('CC(CCc1cccc(C(F)(F)F)c1)Sc1ncccc1C(=O)NCc1ccc(F)cc1 (centres unmarked)', 'category 1'),
  ('CC1(C)CC1CNC(=O)c1cccnc1SCCCc1ccc(F)cc1 (centres unmarked)', 'category 2'),
  ('O=C(NCc1ccco1)c1cccnc1SCCCc1ccc(F)cc1', 'category 2'),
  ('O=C(NCC1CCCCCC1)c1cccnc1CCCCc1cccc(C(F)(F)F)c1', 'category 3'),
  ('O=C(NCc1cccs1)c1cccnc1SCCCCc1ccccc1', 'category 3');

Please classify: COc1cccc(CCCSc2ncccc2C(=O)NCC2CC3CCC2C3)c1 (centres unmarked) category 3

State the class of the molecule shown: O=C(NCc1cccs1)c1cccnc1SCCCCc1ccc(F)c(F)c1 category 3

Just checking, what class would you give CC(CSc1ccccc1)Sc1ncccc1C(=O)NCc1cccs1 (centres unmarked) here? category 1
